These entries and their values trace back to ChEMBL document CHEMBL4049434.

- tested-target: Muscarinic acetylcholine receptor M2 (Homo sapiens)
- test-protocol: Displacement of [3H]NMS from human muscarinic acetylcholine receptor M2
pKi: −log10 of the molar value.
assay-readout: pKi

Consider O=C1CCCN1CC#CCN1CCCC1 . Its measured pKi is 5.00 to 6.60

----------
- tested-target: Muscarinic acetylcholine receptor M2 (Homo sapiens, UniProt P08172)
- Sequence (P08172 whole entry): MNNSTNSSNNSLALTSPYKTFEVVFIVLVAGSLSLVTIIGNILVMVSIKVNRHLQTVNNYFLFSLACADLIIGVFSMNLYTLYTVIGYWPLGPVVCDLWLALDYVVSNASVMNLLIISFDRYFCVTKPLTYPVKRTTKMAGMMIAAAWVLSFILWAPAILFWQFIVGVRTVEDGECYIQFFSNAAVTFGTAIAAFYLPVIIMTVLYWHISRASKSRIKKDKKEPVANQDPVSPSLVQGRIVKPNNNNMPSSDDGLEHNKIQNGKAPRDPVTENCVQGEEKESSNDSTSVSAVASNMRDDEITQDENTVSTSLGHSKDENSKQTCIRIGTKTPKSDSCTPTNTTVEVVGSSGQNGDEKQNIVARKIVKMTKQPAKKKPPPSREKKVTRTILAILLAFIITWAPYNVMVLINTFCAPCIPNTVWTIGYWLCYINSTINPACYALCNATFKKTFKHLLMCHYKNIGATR
- test-protocol: Displacement of [3H]UR-AP060 from human muscarinic acetylcholine receptor M2 expressed in CHOK9 cell homogenate after 3 hrs by liquid scintillation counting assay
# Lookup of reported Ki keyed by entry
Output spec: scalar in nM, unitless text.

// worked examples, Ki included
response.value for O=C1CCCN1CC#CCN1CCCC1 (field: Ki) = 10000

Entry CCC(=O)NCCNC(=O)CCc1cn(CCCCC2CCN(CC(=O)N3c4ccccc4NC(=O)c4ccccc43)CC2)cn1 , Ki reported as 10.2

Ki recorded for this compound, CCC(=O)NCc1cc(C(=O)NCCNC(=O)CCc2cn(CCCCC3CCN(CC(=O)N4c5ccccc5NC(=O)c5ccccc54)CC3)cn2)cc(C(=O)NCCNC(=O)CCc2cn(CCCCC3CCN(CC(=O)N4c5ccccc5NC(=O)c5ccccc54)CC3)cn2)c1.O=C(O)C(F)(F)F.O=C(O)C(F)(F)F.O=C(O)C(F)(F)F.O=C(O)C(F)(F)F , is 1.05

Then there is this compound:
The compound listed as C[N+](C)(CCCCCC[N+](C)(C)CCCN1C(=O)c2ccccc2C1=O)CCCN1C(=O)c2ccccc2C1=O has a reported Ki of 1070
